Experimental Target: Oxysterols receptor LXR-beta (Rattus norvegicus)
Sequence (Q62755 whole entry): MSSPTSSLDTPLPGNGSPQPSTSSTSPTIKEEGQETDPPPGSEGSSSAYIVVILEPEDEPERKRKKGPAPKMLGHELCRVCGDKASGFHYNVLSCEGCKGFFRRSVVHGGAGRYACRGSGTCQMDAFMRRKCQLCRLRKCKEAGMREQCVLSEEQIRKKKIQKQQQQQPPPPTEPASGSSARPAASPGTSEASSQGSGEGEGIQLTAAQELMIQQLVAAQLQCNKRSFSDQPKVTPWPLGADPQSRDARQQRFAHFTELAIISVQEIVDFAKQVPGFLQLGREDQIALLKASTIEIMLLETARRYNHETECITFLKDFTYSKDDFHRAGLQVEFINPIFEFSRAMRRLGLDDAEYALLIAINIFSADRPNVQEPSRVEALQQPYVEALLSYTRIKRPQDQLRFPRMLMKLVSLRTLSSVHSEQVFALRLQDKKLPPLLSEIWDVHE
Assay Info: Transactivation of rat LXRbeta expressed in HEK293FT cells measured after 14 to 18 hrs by dual-luciferase reporter gene assay
Format: cell-based
Recorded Conditions: read-out: EC50
Readout Type: pEC50
The quantity pEC50 is defined as the negative base-10 logarithm of the molar concentration.

Check out these entries, answers already filled in.
Ask: Send back Oxysterols receptor LXR-beta (Rattus norvegicus) pEC50 of CCN(C)C(=O)C(C)C[C@@H](C)[C@H]1CC[C@H]2[C@@H]3CC=C4C[C@@H](O)CC[C@]4(C)[C@H]3CC[C@]12C (stereo in doubt; 10) only.
Reply: 5.41

Ask: Send back Oxysterols receptor LXR-beta (Rattus norvegicus) pEC50 of CCN(C)C(=O)CC[C@@H](C)[C@H]1CC[C@H]2[C@@H]3CC=C4C[C@@H](O)CC[C@]4(C)[C@H]3CC[C@]12C only.
Reply: 6.10

Ask: Send back Oxysterols receptor LXR-beta (Rattus norvegicus) pEC50 of C[C@H](C[C@H]1CCCN(C)C1=O)[C@H]1CC[C@H]2[C@@H]3CC=C4C[C@@H](O)CC[C@]4(C)[C@H]3CC[C@]12C only.
Reply: 6.62

Continuing:
Ask: Send back Oxysterols receptor LXR-beta (Rattus norvegicus) pEC50 of CCCN(C)C(=O)CC[C@@H](C)[C@H]1CC[C@H]2[C@@H]3CC=C4C[C@@H](O)CC[C@]4(C)[C@H]3CC[C@]12C only.
Reply: 5.99

Ask: Send back Oxysterols receptor LXR-beta (Rattus norvegicus) pEC50 of C[C@H](CCC(=O)N1CCCC1)[C@H]1CC[C@H]2[C@@H]3CC=C4C[C@@H](O)CC[C@]4(C)[C@H]3CC[C@]12C only.
Reply: 6.78

Ask: Send back Oxysterols receptor LXR-beta (Rattus norvegicus) pEC50 of CC(C)NC(=O)CC[C@@H](C)[C@H]1CC[C@H]2[C@@H]3CC=C4C[C@@H](O)CC[C@]4(C)[C@H]3CC[C@]12C only.
Reply: 6.06

From: ChEMBL document CHEMBL4339203
